The entries below come with measured Ki values attached.
Target: 5-hydroxytryptamine receptor 2C (Homo sapiens)
Sequence (P28335 whole entry): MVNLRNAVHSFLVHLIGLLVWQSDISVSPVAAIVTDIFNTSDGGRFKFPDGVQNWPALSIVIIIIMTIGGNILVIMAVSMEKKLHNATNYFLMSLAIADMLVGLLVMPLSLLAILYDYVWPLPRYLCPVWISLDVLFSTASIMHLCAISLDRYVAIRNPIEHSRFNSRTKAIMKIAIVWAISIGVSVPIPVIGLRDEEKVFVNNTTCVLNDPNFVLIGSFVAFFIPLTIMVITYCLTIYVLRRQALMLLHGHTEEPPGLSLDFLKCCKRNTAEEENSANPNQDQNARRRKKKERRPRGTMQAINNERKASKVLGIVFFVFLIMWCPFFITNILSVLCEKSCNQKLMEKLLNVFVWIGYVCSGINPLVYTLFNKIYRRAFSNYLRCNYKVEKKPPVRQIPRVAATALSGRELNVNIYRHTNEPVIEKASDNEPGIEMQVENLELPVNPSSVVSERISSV
Assay: Binding affinity to human recombinant 5-HT2C receptor by radioligand displacement assay
measure_name: Ki

> print(dat)
                           structure.smiles                              assay.system  measure.name  observed.value
1  Cc1ccc2c(N3CCN(CCc4cccc(NC(=O)Nc5ccccc5)c4)CC3)cccc2n1  5-hydroxytryptamine receptor 2C (Homo sapiens)            Ki         > 10 µM
2  Cc1ccc2c(N3CCN(CCc4cccc(NC(=O)c5cnccn5)c4)CC3)cccc2n1  5-hydroxytryptamine receptor 2C (Homo sapiens)            Ki       > 1.58 µM
3  Cc1ccc2c(N3CCN(CCc4cccc(N5CCOC5=O)c4)CC3)cccc2n1  5-hydroxytryptamine receptor 2C (Homo sapiens)            Ki       > 5.01 µM

Values compiled from ChEMBL document CHEMBL1629528.
